# System: LG0703-F948-PDC complex spheroid viability;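 note: spheroids exposed to agents for 7 days; 100% = DMSO vehicle wells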
# Assay Method Text: Anticancer human tumor LG0703-F948-PDC patient-derived lung adenocarcinoma cell line growth inhibition [RAS]
# Experimental Parameters: second compound 0.3 µM; first compound 10 µM; stronger effect = lower value
Observable: viability, T/C (%)

>>> assay_value("CC(Nc1ccc2c(c1)OCCn1cc(N3C(=O)OCC3C(F)F)nc1-2)C(N)=O (centres undefined) + CCn1c(-c2cccnc2C(C)OC)c2c3cc(ccc31)N1CCOC(CC(NC(=O)C(C(C)C)N(C)C(=O)C3(F)CCN(C(=O)C#CC(C)(C)N(C)C)CC3)C(=O)N3CCCC(N3)C(=O)OCC(C)(C)C2)C1")
10.1
>>> assay_value("NC1c2ccccc2OC12CCN(c1cnc3c(N4CCCc5ncccc54)n[nH]c3n1)CC2 (centres undefined) + CCn1c(-c2cc(N3CCN(C)CC3)cnc2C(C)OC)c2c3cc(ccc31)-c1csc(n1)CC(NC(=O)C1CC1C)C(=O)N1CCCC(N1)C(=O)OCC(C)(C)C2")
1.7
>>> assay_value("CC(C)NCC(C(=O)N1CCN(c2ncnc3c2C(C)CC3O)CC1)c1ccc(Cl)cc1 (centres undefined) + CCn1c(-c2cccnc2C(C)OC)c2c3cc(ccc31)N1CCOC(CC(NC(=O)C(C(C)C)N(C)C(=O)C3(F)CCN(C(=O)C#CC(C)(C)N(C)C)CC3)C(=O)N3CCCC(N3)C(=O)OCC(C)(C)C2)C1")
15.5
>>> assay_value("CC(C)NCC(C(=O)N1CCN(c2ncnc3c2C(C)CC3O)CC1)c1ccc(Cl)cc1 (centres undefined) + CCn1c(-c2cc(N3CCN(C)CC3)cnc2C(C)OC)c2c3cc(ccc31)-c1csc(n1)CC(NC(=O)C1CC1C)C(=O)N1CCCC(N1)C(=O)OCC(C)(C)C2")
0.61
>>> assay_value("C[C@@H](NC(=O)c1ncnc(N)c1Cl)c1ncc(C(=O)Nc2cc(C(F)(F)F)c(Cl)cn2)s1 + CCn1c(-c2cccnc2C(C)OC)c2c3cc(ccc31)N1CCOC(CC(NC(=O)C(C(C)C)N(C)C(=O)C3(F)CCN(C(=O)C#CC(C)(C)N(C)C)CC3)C(=O)N3CCCC(N3)C(=O)OCC(C)(C)C2)C1")
37.5
>>> assay_value("CC(=O)OC12COC1CC(O)C1(C)C(=O)C(O)C3=C(C)C(OC(=O)C(O)C(NC(=O)OC(C)(C)C)c4ccccc4)CC(O)(C(OC(=O)c4ccccc4)C21)C3(C)C (centres undefined) + CCn1c(-c2cccnc2C(C)OC)c2c3cc(ccc31)N1CCOC(CC(NC(=O)C(C(C)C)N(C)C(=O)C3(F)CCN(C(=O)C#CC(C)(C)N(C)C)CC3)C(=O)N3CCCC(N3)C(=O)OCC(C)(C)C2)C1")
20.9
>>> assay_value("C[C@@H](NC(=O)c1ncnc(N)c1Cl)c1ncc(C(=O)Nc2cc(C(F)(F)F)c(Cl)cn2)s1 + CCn1c(-c2cc(N3CCN(C)CC3)cnc2C(C)OC)c2c3cc(ccc31)-c1csc(n1)CC(NC(=O)C1CC1C)C(=O)N1CCCC(N1)C(=O)OCC(C)(C)C2")
15.3
>>> assay_value("Cc1nc(N2CCC3(CC2)COC(C)C3N)c(CO)nc1Sc1ccnc(N)c1Cl (centres undefined) + CCn1c(-c2cccnc2C(C)OC)c2c3cc(ccc31)N1CCOC(CC(NC(=O)C(C(C)C)N(C)C(=O)C3(F)CCN(C(=O)C#CC(C)(C)N(C)C)CC3)C(=O)N3CCCC(N3)C(=O)OCC(C)(C)C2)C1")
3.6
>>> assay_value("CC1(O)CCCC1n1c(=O)c(C(F)F)cc2cnc(NC3CCN(S(C)(=O)=O)CC3)nc21 (centres undefined) + CCn1c(-c2cc(N3CCN(C)CC3)cnc2C(C)OC)c2c3cc(ccc31)-c1csc(n1)CC(NC(=O)C1CC1C)C(=O)N1CCCC(N1)C(=O)OCC(C)(C)C2")
5.22
>>> assay_value("Cc1nc(N2CCC3(CC2)COC(C)C3N)c(CO)nc1Sc1ccnc(N)c1Cl (centres undefined) + CCn1c(-c2cc(N3CCN(C)CC3)cnc2C(C)OC)c2c3cc(ccc31)-c1csc(n1)CC(NC(=O)C1CC1C)C(=O)N1CCCC(N1)C(=O)OCC(C)(C)C2")
4.35
>>> assay_value("CCC(CC)c1cc(NC2CCC(N)C2)n2nccc2n1 (centres undefined) + CCn1c(-c2cccnc2C(C)OC)c2c3cc(ccc31)N1CCOC(CC(NC(=O)C(C(C)C)N(C)C(=O)C3(F)CCN(C(=O)C#CC(C)(C)N(C)C)CC3)C(=O)N3CCCC(N3)C(=O)OCC(C)(C)C2)C1")
0.69
>>> assay_value("CC1(O)CCCC1n1c(=O)c(C(F)F)cc2cnc(NC3CCN(S(C)(=O)=O)CC3)nc21 (centres undefined) + CCn1c(-c2cccnc2C(C)OC)c2c3cc(ccc31)N1CCOC(CC(NC(=O)C(C(C)C)N(C)C(=O)C3(F)CCN(C(=O)C#CC(C)(C)N(C)C)CC3)C(=O)N3CCCC(N3)C(=O)OCC(C)(C)C2)C1")
23.9
>>> assay_value("CCC(CC)c1cc(NC2CCC(N)C2)n2nccc2n1 (centres undefined) + CCn1c(-c2cc(N3CCN(C)CC3)cnc2C(C)OC)c2c3cc(ccc31)-c1csc(n1)CC(NC(=O)C1CC1C)C(=O)N1CCCC(N1)C(=O)OCC(C)(C)C2")
0.41
>>> assay_value("CC(Nc1ccc2c(c1)OCCn1cc(N3C(=O)OCC3C(F)F)nc1-2)C(N)=O (centres undefined) + CCn1c(-c2cc(N3CCN(C)CC3)cnc2C(C)OC)c2c3cc(ccc31)-c1csc(n1)CC(NC(=O)C1CC1C)C(=O)N1CCCC(N1)C(=O)OCC(C)(C)C2")
0.71

Source: PubChem BioAssay AID2060890
